FYI, the data here is from PubChem BioAssay (NCATS).

# ASSAY PROTOCOL: Confirmatory qHTS for small molecule stabilizers of the endoplasmic reticulum resident proteome: Secreted ER Calcium Modulated Protein (SERCaMP) assay (AID 1508628); note: nearly all actives have a fitted effect of over 40% in size
# EXPERIMENTAL CONDITIONS: SERCaMP secreted luciferase ER calcium/proteostasis reporter; series mostly up to 76.3 µM
Records with an inconclusive call do not appear. Activity calls are given as the source filed them. Calls come from the whole dose curve; as a rule, active = well fitted inhibition curve with a large enough effect; inconclusive = small, poorly fitted or top-dose-only effect; inactive = no such curve, though single readings can be large or run the other way.
Lab note: assign the record to one of 1 for active, 0 for inactive

Inquiry: Outcome logged for O=C1NC(c2cccc([N+](=O)[O-])c2)=CCN1c1ccccc1O in this assay:
Reply text: 1

Inquiry: Ok, now Cc1onc(-c2ccccc2)c1C(=O)Cl
Reply text: 0

Inquiry: Ok, now COc1cccc2c1[C@@H]1CN(CCCCn3c(=O)[nH]c4c(sc5ncc(-c6ccccc6)nc54)c3=O)C[C@@H]1CO2
Reply text: 0

Inquiry: Ok, now CCC(=O)O[C@H]1[C@H](O[C@@H]2[C@@H](C)[C@H](O[C@H]3C[C@@](C)(OC)[C@@H](O)[C@H](C)O3)[C@@H](C)C(=O)O[C@H](CC)[C@@](C)(O)[C@H](O)[C@@H](C)C(=O)[C@H](C)C[C@@]2(C)O)O[C@H](C)C[C@@H]1N(C)C
Reply text: 1

Inquiry: Ok, now Fc1ccc(C(c2ccc(F)cc2)N2CCNCC2)cc1
Reply text: 0

Inquiry: Ok, now CCOc1ncc(F)c(=O)[nH]1
Reply text: 0

Inquiry: Ok, now CN1CCC(Nc2ncc3ncnc(Nc4ccc(F)c(Cl)c4)c3n2)CC1
Reply text: 0

Inquiry: Ok, now O=C(O)Cn1cnnn1
Reply text: 0

Inquiry: Ok, now CC(C(O)c1ccccc1)N(C)CCOC(c1ccccc1)c1ccccc1 (stereo not drawn)
Reply text: 1

Inquiry: Ok, now CCCC(=O)Nc1ccc(O)c(C(C)=O)c1
Reply text: 0

Inquiry: Ok, now CC(C)C[C@@H]1[C@H](c2ccccc2)OC(=O)N1CCCN1CCCCCC1
Reply text: 1

Inquiry: Ok, now COC(=O)[C@H]1[C@H]2C[C@@H]3c4[nH]c5cc(OC)ccc5c4CCN3C[C@H]2C[C@@H](OC(=O)/C=C/c2ccc(O)c(OC)c2)[C@@H]1OC
Reply text: 1

Inquiry: Ok, now N[C@@H](Cc1cc(I)c(O)c(I)c1)C(=O)O
Reply text: 0
